Reported IC50 values follow for various molecules
Test system: BxPC3 cells
Experiment: Viability assay (CellTiter Blue), BxPC3 cells, hypoxia vs normoxia
Type: cell-based, human
Conditions: Homo sapiens, BXPC-3; BxPC3, normoxic conditions; read-out: IC50 (μM) [2]
Just the number please, in µM, no unit attached.

                                   molecule  attribute_measured  measure_unit  recorded_result
0  Nc1n[n+]([O-])c2ccccc2[n+]1[O-] [Tirapazamine, reference compound]                IC50            µM               39

Briefly, IC50 measured for Cn1c(COP(=O)(NCCBr)NCCBr)cnc1[N+](=O)[O-] [TH302, Evofosfamide, reference compound] : 71

---

Test system: PANC-1 cells
Experiment: Viability assay (CellTiter Blue), PANC-1 cells, hypoxia vs normoxia
Type: cell-based, human
Conditions: PANC1, hypoxic conditions; read-out: IC50 (μM) [1]
Entries and their IC50
Answer in µM, number only, no unit symbol.

                              line_notation  recorded_result
0  C#CCNC(=O)C[C@H]1COc2cc(CCCCCCCCCCCC)ccc2C(=O)NC(=C)/C=C/C(=O)N(C)CC(=O)N1              3.1

Form: molecule = `C=C1/C=C/C(=O)N(C)CC(=O)N[C@@H](CC(=O)OC)COc2cc(CCCCCCCCCCCC)ccc2C(=O)N1` ; IC50 = 4.3

Data point: `C=C1/C=C/C(=O)N(C)CC(=O)N[C@@H](CC(=O)NC2CC2)COc2cc(CCCCCCCCCCCC)ccc2C(=O)N1` ; IC50 = 2.3

---

Test system: BxPC3 cells
Assay: Viability assay (CellTiter Blue), BxPC3 cells, hypoxia vs normoxia
Type: cell-based, human
Details: BxPC3, hypoxic conditions; read-out: IC50 (μM) [1]
Procedure: PANC-1 and HaCat cells (PANC-1: RRID:CVCL 0480, taken from a person, HaCat: RRID:CVCL 0038) were cultured in DMEM (Gibco, Cat #: 21969-035) supplemented with FBS (10%, Gibco, Cat #: A31698-02), Penicillin/Streptomycin (1%, Sigma-Aldrich, Cat #: P0781), and Ala-Gln (200 μM, Sigma-Aldrich, Cat #: G8541). BxPC3 cells (RRID:CVCL 0186, taken from a person) were cultured in RPMI 1640 (Gibco, Cat #: 61870-010) supplemented with FBS (10%) and Penicillin/Streptomycin (1%). […]
ATTRIBUTE_MEASURED: IC50

>>> df
                                   compound  attribute_measured  recorded_result
0  CCCCCCCCCCCCc1ccc2c(c1)OC[C@H](CCCCNC(=O)OC(C)(C)C)NC(=O)CN(C)C(=O)/C=C/[C@H](CO)NC2=O                IC50          > 50 µM
1  CCCCCCCCCCCCc1ccc2c(c1)OCCNC(=O)CN(C)C(=O)/C=C/C(CO)NC2=O (stereo not drawn)                IC50          > 50 µM

Kindly consider the entry below.
Reported IC50 of `CCCCCCCCCCCCc1ccc2c(c1)OC[C@H](CC(=O)OC)NC(=O)CN(C)C(=O)/C=C/[C@H](CO)NC2=O` : > 50 µM
